molecular target: Neuronal acetylcholine receptor subunit alpha-7 (Rattus norvegicus); assay: Inhibition of [125I]-iodo-MLA binding to Nicotinic acetylcholine receptor alpha-7 in rat cerebral cortex
Sequence (Q05941 whole entry): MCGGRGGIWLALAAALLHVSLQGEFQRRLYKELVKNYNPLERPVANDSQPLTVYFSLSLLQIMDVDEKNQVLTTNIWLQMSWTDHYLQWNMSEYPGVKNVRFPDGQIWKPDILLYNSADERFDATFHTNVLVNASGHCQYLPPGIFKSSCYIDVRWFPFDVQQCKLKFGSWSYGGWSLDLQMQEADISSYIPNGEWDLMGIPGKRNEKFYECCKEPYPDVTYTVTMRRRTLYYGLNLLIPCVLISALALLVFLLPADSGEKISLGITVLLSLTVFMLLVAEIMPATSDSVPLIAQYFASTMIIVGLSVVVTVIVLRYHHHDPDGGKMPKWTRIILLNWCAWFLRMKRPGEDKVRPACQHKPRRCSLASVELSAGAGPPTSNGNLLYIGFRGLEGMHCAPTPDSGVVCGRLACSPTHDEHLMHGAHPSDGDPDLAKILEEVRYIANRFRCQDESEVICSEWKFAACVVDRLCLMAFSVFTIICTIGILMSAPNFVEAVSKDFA
Please respond with 1 when measured Ki is strictly beneath 200 nM, and with -1 in all other cases.

Say whether its Ki is strictly beneath 200 nM. Entry: CN1C2CCC1C(c1cncc(I)c1)C2 (stereo unspecified)
1

Say whether its Ki is strictly beneath 200 nM. Entry: Ic1cncc(C2CC3CCC2N3)c1 (single isomer, unassigned; (-))
1

Say whether its Ki is strictly beneath 200 nM. Entry: C=Cc1cncc(C2CC3CCC2N3)c1 (stereo unspecified)
-1

Say whether its Ki is strictly beneath 200 nM. Entry: Clc1cncc(C2CC3CCC2N3)c1 (stereo unspecified)
1

Say whether its Ki is strictly beneath 200 nM. Entry: Fc1cncc(C2CC3CCC2N3)c1 (stereo unspecified)
-1

Say whether its Ki is strictly beneath 200 nM. Entry: Ic1cncc(C2CC3CCC2N3)c1 (single isomer, unassigned; (+))
1
